B1: mRNA-splicing (parent)
chain: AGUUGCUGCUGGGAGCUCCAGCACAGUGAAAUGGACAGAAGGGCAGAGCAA

Variants of: B1
Test: exon inclusion enrichment index; higher = more inclusion; WT1 exon 5 minigene, HEK293
value_kind: exon inclusion enrichment index

* G5A C6G U7G C9A A31C U32A | 0.00457
* A31U U32A | 0.00762
* C6A U7A C9A U10A C22U A23C | 0.267
* G5U G8U C9U U10C G11C | 0.932
* G5A C6G U7G C9A G43C C44A | 0.0166
* G5A U7C G8A U10C G28U A29C | 1.47
* G5U G8U C9U A47G G48C | 0.0267
* G5A C6U U7A G8U C9A A25U | 0.138
* G5A U7C G8A U10C C19U | 0.131
* C6A U7A C9A U10A C24A | 0.545
* G5A U7C G8A U10C G11A G12A | 0.934
* G5C C6G U7C U10C C36A A37C | 3.59
* G5C C6A U7C G8A U10A G11C | 0.99
* G5U G8U C9U C19A A20C | 0.0372
* C6A U7A C9A U10A C18G | 0.561
* G5A C6G U7G C9A A39U A40U | 0.00155
* G5A U7C G8A U10C A14C G15A | 0.731
* A47U G48C | 0.106
* C6A U7A C9A U10A A25G G26U | 1.43
* G5C C6G U7C U10C C44A A45G | 5.42
* G5C C6U G8C C9U U10C A25U G26A | 2.23
* G5A U7C G8A U10C A31G | 2.95
